target: Recombinant ROCK1 (amino acids 1-477) (Homo sapiens); construct: Recombinant ROCK1 (amino acids 1-477); assay: ROCK inhibition assay, LANCE Ultra TR-FRET kinase assay; assay type: biochemical; conditions: at Km of ATP (table title); method: 1 mM ATP, 50 nM ULight-CREBtide substrate, 1 hour, room temperature; hydrochloride
Sequence (Q13464 1-477): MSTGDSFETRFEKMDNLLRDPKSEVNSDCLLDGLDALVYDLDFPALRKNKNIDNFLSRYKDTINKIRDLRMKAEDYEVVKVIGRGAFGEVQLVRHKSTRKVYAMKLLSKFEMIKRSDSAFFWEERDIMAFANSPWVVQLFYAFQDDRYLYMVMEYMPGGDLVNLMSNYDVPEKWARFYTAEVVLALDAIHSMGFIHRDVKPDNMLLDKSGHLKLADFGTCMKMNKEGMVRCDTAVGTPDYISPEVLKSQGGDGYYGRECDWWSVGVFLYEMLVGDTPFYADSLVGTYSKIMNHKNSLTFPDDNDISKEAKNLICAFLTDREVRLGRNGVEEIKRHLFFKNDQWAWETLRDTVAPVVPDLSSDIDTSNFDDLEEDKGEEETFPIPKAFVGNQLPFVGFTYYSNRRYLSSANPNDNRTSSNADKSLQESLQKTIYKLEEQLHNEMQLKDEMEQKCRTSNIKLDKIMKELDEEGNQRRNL
pIC50: −log10 of the molar value. Structures can show the parent of a compound that is named as a salt.
experimental-endpoint: pIC50

Item: COc1n[nH]cc1-c1cc2c(cn1)c(C(=O)C1COc3ccc(Cl)cc3C1)cn2CCO (stereo not shown) [Compound 1-59, hydrochloride] | System: Recombinant ROCK1 (amino acids 1-477) (Homo sapiens) | pIC50: 6.30 to 7.29
